Just for reference, patent US20160340421A1 is where these values come from.

// reported IC50, GDF11-inducible luciferase, A204/Smad2 cells, 0.8 nM GDF11 per item
- Assay Target: T1, hGDF11 homodimer (human, UniProt O95390 299-407)
- T1 sequence (looked up): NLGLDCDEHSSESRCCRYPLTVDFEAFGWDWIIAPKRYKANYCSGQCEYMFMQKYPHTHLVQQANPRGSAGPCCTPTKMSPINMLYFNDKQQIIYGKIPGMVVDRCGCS
- Protocol Summary: cell-based or functional assay
// units = nM; emit number, no label

- Binder: "21-E5 (antibody, V domains shown) VH: QVQLVESGPGLVKPSETLSLTCTVYGGSISSGNYYWGWIRQPPGKGLEWIGTIYYSGSAYYNPSLKSRVTMSVDTSKNQFSLKLSSVTAADTAVYYCVRDYYDSSGHYYNWFDPWGQGTTVTVSS VL: AIQMTQSPSSLSASVGDRVTITCRASQDIRHDLGWYQQKPGKAPKRLIYAASSLQSGVPSRFSGSGSGTEFTLTISSLQPEDFATYYCLQHNTYPWTFGQGTKVEIKR"
  Unit Abbrev: "nM"
  Quantitative Result: 35

Next binder, please.
## Input For 22-E6 (antibody, V domains shown) VH: QVQLVQSGPGLVKPSETLSLTCTVSGGSIITYSYYWGWIRQPPGKGLEWIGTIHHSGSTYYNPSLKSRVTISVDTSKNQFSLTLSSVTAADTAVYYCARDYYDSSGYYYNWFDPWGQGTMVTVSS VL: AIQMTQSPSSLSASVGDRVTITCRASQGIRNDLGWYQQKPGKAPKRLIYAASSLQSGVPSRFSGSGSGTEFTLTISSLQPEDFATYYCLQHNSSPWTFGQGTKVEIKR , what is its reported IC50, GDF11-inducible luciferase, A204/Smad2 cells, 0.8 nM GDF11?
## Output 22.4
